Assignment: determine reported Ki for the given compounds.
tested.on: Sigma intracellular receptor 2 (Homo sapiens)
Sequence (Q5BJF2 whole entry): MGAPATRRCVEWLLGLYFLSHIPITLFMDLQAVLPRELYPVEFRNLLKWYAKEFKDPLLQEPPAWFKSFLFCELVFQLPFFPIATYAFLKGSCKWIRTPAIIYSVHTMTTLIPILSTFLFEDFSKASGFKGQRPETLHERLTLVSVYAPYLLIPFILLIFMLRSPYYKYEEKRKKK
test.method.notes: Displacement of [3H]-di-o-tolylguanidine from sigma2 receptor in human RT4 cell membranes incubated for 120 mins in the presence of sigma1 receptor ligand (+)-pentazocine by scintillation counting method
Quick note: give the figure in nM, leave out the unit.

Entry CN(CC1CCCCC1)[C@H]1CC[C@@]2(CC1)OC=Cc1ccccc12 has what Ki?
16

Next: C1=Cc2ccccc2[C@]2(CC[C@H](NCC3CCCCC3)CC2)O1
6.7

Could you do the same for C1=Cc2ccccc2[C@]2(CC[C@@H](NCC3CCCCC3)CC2)O1 , please?
7

Can you handle COC1O[C@]2(CC[C@H](N(C)CC3CCCCC3)CC2)c2ccccc21 (stereo partly drawn) next?
9.4

Try the compound CCOC1Cc2ccccc2[C@]2(CC[C@H](N(C)CC3CCCCC3)CC2)O1 (stereo partly drawn)
14

Here is the next compound: CCOC1Cc2ccccc2[C@]2(CC[C@@H](NCC3CCCCC3)CC2)O1 (stereo partly drawn)
16

// next record COC1Cc2ccccc2[C@]2(CC[C@H](N(C)CC3CCCCC3)CC2)O1 (stereo partly drawn)
13

Next compound: COC1Cc2ccccc2[C@]2(CC[C@H](NCc3ccccc3)CC2)O1 (stereo partly drawn)
227

# iterate: c1ccc2c(c1)CCO[C@]21CC[C@H](NCC2CCCCC2)CC1
8

Also CN(CC1CCCCC1)[C@H]1CC[C@]2(CC1)OCCc1ccccc12 , if possible.
5.5

Could you do the same for COC1O[C@]2(CC[C@@H](N(C)CC3CCCCC3)CC2)c2ccccc21 (stereo partly drawn) , please?
7.6

Next entry: CCOC1Cc2ccccc2[C@]2(CC[C@@H](N(C)CC3CCCCC3)CC2)O1 (stereo partly drawn)
93

Another compound to check: CN(CC1CCCCC1)[C@H]1CC[C@@]2(CC1)OCCc1ccccc12
12

Continue with CN(CC1CCCCC1)[C@H]1CC[C@]2(CC1)OC=Cc1ccccc12
4.6

Now try c1ccc2c(c1)CCO[C@]21CC[C@@H](NCC2CCCCC2)CC1 .
33

Input COC1O[C@]2(CC[C@H](NCC3CCCCC3)CC2)c2ccccc21 (stereo partly drawn)
39

Can you check COC1O[C@]2(CC[C@@H](NCC3CCCCC3)CC2)c2ccccc21 (stereo partly drawn) next?
11

Next compound: CCOC1Cc2ccccc2[C@]2(CC[C@H](NCC3CCCCC3)CC2)O1 (stereo partly drawn)
46
